A collection of compounds and their measured pEC50
# tgt: human mGluR5 (Homo sapiens, UniProt P41594)
# Construct: expressed in transfected cells; host or cells: HEK293 cells stably expressing rat GLAST (EAAT1), stably transfected with pcDNAzeo3.1 carrying synthetic human mGluR5 DNA; zeocin-selected single clones
# Sequence (P41594 21-1212): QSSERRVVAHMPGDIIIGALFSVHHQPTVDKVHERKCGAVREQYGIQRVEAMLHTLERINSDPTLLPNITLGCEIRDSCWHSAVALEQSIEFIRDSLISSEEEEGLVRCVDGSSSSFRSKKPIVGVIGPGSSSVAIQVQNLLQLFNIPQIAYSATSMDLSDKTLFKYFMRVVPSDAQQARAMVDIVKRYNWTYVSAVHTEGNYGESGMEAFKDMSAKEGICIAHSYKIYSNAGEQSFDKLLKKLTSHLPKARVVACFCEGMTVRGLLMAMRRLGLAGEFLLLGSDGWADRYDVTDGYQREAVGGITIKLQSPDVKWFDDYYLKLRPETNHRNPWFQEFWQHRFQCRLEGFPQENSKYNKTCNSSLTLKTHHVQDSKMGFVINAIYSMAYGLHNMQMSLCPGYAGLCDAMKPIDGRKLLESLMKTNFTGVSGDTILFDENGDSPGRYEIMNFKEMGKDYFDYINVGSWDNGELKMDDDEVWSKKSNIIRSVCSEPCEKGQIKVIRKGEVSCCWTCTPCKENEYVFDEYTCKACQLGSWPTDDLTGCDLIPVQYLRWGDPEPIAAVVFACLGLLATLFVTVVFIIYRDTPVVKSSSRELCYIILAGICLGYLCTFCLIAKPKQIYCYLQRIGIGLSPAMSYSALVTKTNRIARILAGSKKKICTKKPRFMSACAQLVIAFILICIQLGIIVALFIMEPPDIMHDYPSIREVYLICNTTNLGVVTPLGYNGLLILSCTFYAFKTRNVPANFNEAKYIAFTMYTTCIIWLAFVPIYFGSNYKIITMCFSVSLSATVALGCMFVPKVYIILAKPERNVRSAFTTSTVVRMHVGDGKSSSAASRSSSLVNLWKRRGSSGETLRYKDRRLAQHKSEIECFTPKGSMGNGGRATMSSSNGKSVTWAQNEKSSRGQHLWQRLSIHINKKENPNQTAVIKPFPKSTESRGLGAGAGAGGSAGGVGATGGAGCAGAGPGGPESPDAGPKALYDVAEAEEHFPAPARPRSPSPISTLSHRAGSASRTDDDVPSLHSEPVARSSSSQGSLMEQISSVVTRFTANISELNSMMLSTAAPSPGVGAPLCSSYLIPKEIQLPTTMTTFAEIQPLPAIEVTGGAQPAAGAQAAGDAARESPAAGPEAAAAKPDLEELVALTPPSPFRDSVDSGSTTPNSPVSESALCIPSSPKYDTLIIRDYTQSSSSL
# assay.details: In vitro cell-based FLIPR calcium assay for positive modulation of the activation of mGluR5 by glutamate (PAM EC50)
# measurement.conditions: HEK293/GLAST cells expressing recombinant human mGluR5; FLIPR calcium signal; glutamate added at its EC20; read-out: mGluR5 PAM EC50
pEC50: −log10 of the molar value.

Some entries whose results are on file:
>  <compound>
O=c1c2ccc(/C=C/c3ccccn3)cc2nc2n1CCCCC2

>  <tgt>
human mGluR5 (Homo sapiens, UniProt P41594)

>  <pEC50>
7.00 to 7.52

$$$$
>  <compound>
O=c1c2ccc(C#CC3=CCCCC3)cc2nc2n1CCC1(CC2)OCCO1

>  <tgt>
human mGluR5 (Homo sapiens, UniProt P41594)

>  <pEC50>
6.00 to 6.52

$$$$
>  <compound>
O=c1c2ccc(C#Cc3ccccn3)cc2nc2n1CC(CO)C2 (stereo not drawn)

>  <tgt>
human mGluR5 (Homo sapiens, UniProt P41594)

>  <pEC50>
6.52 to 7.00

$$$$

IN: Param item = O=c1c2ccc(C#Cc3cccc(F)c3)cc2nc2n1CCNCC2 ; retrieve measured pEC50.
OUT: 6.52 to 7.00

IN: Name the recorded pEC50 for COCC1CCc2nc3cc(C#Cc4ccccn4)ccc3c(=O)n21 (stereo not drawn) .
OUT: 7.00 to 7.52

IN: Recorded pEC50 of CN1CCc2nc3cc(C#Cc4cccc(F)c4)ccc3c(=O)n2CC1 , please.
OUT: 7.00 to 7.52

IN: Give the measured pEC50 of C/C=C1\CCCCCn2c1nc1cc(C(=O)Nc3ncc(C)s3)ccc1c2=O .
OUT: > 8.00

IN: Consider the compound COCCN1CCc2nc3cc(C#Cc4cccc(F)c4)ccc3c(=O)n2CC1 and give its measured pEC50.
OUT: 6.52 to 7.00

IN: I am curious: what pEC50 value has been reported for CC1(F)CCc2nc3cc(C#Cc4ccccn4)ccc3c(=O)n2CC1 (stereo not drawn) [Example 6.48] ?
OUT: > 8.00

* * *

# tgt: human mGluR5 (Homo sapiens, UniProt P41594)
# Construct: expressed in transfected cells; host or cells: HEK293 cells stably expressing rat GLAST (EAAT1), stably transfected with pcDNAzeo3.1 carrying synthetic human mGluR5 DNA; zeocin-selected single clones
# assay.details: In vitro cell-based FLIPR calcium assay for positive modulation of the activation of mGluR5 by glutamate (PAM EC50)
# measurement.conditions: HEK293/GLAST cells expressing recombinant human mGluR5; FLIPR calcium signal; glutamate added at its EC20; read-out: mGluR5 PAM EC50
test.readout: EC50

IN: Given the entry O=c1c2ccc(C#Cc3ccncc3F)cc2nc2n1CCC1(CC2)OCCO1 , report its measured EC50.
OUT: 100 to 300 nM

IN: Please report the recorded EC50 for O=c1c2c(nc3cc(C#Cc4ccccn4)ccn13)C[C@@H]1CCCN1C2 .
OUT: 300 to 1000 nM

IN: Consider the molecule CC1(C)CCc2nc3cc(C#Cc4ccccn4)cnc3c(=O)n2C1 and give its measured EC50.
OUT: 100 to 300 nM

IN: Request the reported EC50 associated with CC1Cc2nc3cc(C#Cc4ccccn4)ccc3c(=O)n2C1 (centres unmarked) [Example 3.11]
OUT: 10 to 30 nM

IN: Data request, read-out EC50, for Cc1cnc(NC(=O)c2ccn3c(=O)c4c(nc3c2)CCCCCC4)s1
OUT: < 10 nM

* * *

# tgt: human mGluR5 (Homo sapiens, UniProt P41594)
# Construct: expressed in transfected cells; host or cells: HEK293 cells stably expressing rat GLAST (EAAT1), stably transfected with pcDNAzeo3.1 carrying synthetic human mGluR5 DNA; zeocin-selected single clones
# assay.details: In vitro cell-based FLIPR calcium assay for positive modulation of the activation of mGluR5 by glutamate (PAM EC50)
# measurement.conditions: HEK293/GLAST cells expressing recombinant human mGluR5; FLIPR calcium signal; glutamate added at its EC20; read-out: mGluR5 PAM EC50
test.readout: EC50

>  <compound>
CN1CCc2nc3cc(C#Cc4ccc(F)cc4)ccn3c(=O)c2CC1

>  <measurement>
300 to 1000 nM

$$$$

IN: I'd like to know its EC50. The compound in question is O=c1c2ccc(C#Cc3ccccc3)cc2nc2n1CCC1(CC2)OCCO1
OUT: 10 to 30 nM

IN: // returns reported EC50 for input CCCN1CCc2nc3cc(C#Cc4cccc(F)c4)ccc3c(=O)n2CC1
OUT: 100 to 300 nM

IN: If you can, please state the reported EC50 value of O=c1c2ccc(C#Cc3cccc(F)c3)cc2nc2n1CC1CCCN1C2 (centres unmarked) .
OUT: < 10 nM

IN: Param item = O=c1c2ccc(C#Cc3cccc(F)c3)cc2nc2n1CCCC2Cc1ccccc1 (centres unmarked) ; retrieve measured EC50.
OUT: 100 to 300 nM

* * *

# tgt: human mGluR5 (Homo sapiens)
# Construct: expressed in transfected cells; host or cells: HEK293 cells stably expressing rat GLAST (EAAT1), stably transfected with pcDNAzeo3.1 carrying synthetic human mGluR5 DNA; zeocin-selected single clones
# assay.details: In vitro cell-based FLIPR calcium assay for positive modulation of the activation of mGluR5 by glutamate (PAM EC50)
# measurement.conditions: HEK293/GLAST cells expressing recombinant human mGluR5; FLIPR calcium signal; glutamate added at its EC20; read-out: mGluR5 PAM EC50
pEC50: −log10 of the molar value.
test.readout: pEC50

Observe how each entry below is paired with its result.
>  <molecule>
O=c1c2ccc(C#Cc3ccc(F)cc3)cc2ncn1Cc1ccco1 [Example 1.14]

>  <pEC50>
6.00 to 6.52

$$$$
>  <molecule>
O=c1c2ccc(C#Cc3cccc(F)c3)cc2nc2n1CCN(C1CCC1)CC2 [Example 8.11]

>  <pEC50>
6.00 to 6.52

$$$$
>  <molecule>
O=c1c2ccc(C#Cc3ccoc3)cc2nc2n1CCC1(CC2)OCCO1 [Example 7.56]

>  <pEC50>
7.00 to 7.52

$$$$
>  <molecule>
Fc1ccc(C#Cc2ccc3c(c2)N=C2CCCCCN2C3)cc1 [Example 19.1]

>  <pEC50>
7.00 to 7.52

$$$$
>  <molecule>
Cc1ccc(C#Cc2ccc3c(=O)n4c(nc3c2)CCC2(CC4)OCCO2)cc1 [Example 7.32]

>  <pEC50>
6.00 to 6.52

$$$$
>  <molecule>
CC1CCCn2c(nc3cc(C#Cc4ccccn4)ccc3c2=O)C1 (stereo not drawn) [Example 6.36]

>  <pEC50>
7.52 to 8.00

$$$$
>  <molecule>
O=c1c2ccc(C#Cc3ccco3)cc2nc2n1CCC1(CC2)OCCO1 [Example 7.55]

>  <pEC50>
7.00 to 7.52

$$$$
>  <molecule>
O=c1c2ccc(C#Cc3ccccn3)cc2nc2n1C1CCN(CC1)C2 [Example 8.26]

>  <pEC50>
6.52 to 7.00

$$$$

Would you kindly look at the next entry?
IN: State the recorded pEC50 for this entry: O=c1c2c(nc3cc(C#Cc4ccc(F)cc4)ccn13)CCCCCC2 [Example 17.5]
OUT: > 8.00

* * *

Reported pEC50 by item:
# tgt: human mGluR5 (Homo sapiens, UniProt P41594)
# Construct: expressed in transfected cells; host or cells: HEK293 cells stably expressing rat GLAST (EAAT1), stably transfected with pcDNAzeo3.1 carrying synthetic human mGluR5 DNA; zeocin-selected single clones
# assay.details: In vitro cell-based FLIPR calcium assay for positive modulation of the activation of mGluR5 by glutamate (PAM EC50)
# measurement.conditions: HEK293/GLAST cells expressing recombinant human mGluR5; FLIPR calcium signal; glutamate added at its EC20; read-out: mGluR5 PAM EC50
pEC50: −log10 of the molar value.

Example entries and their recorded answers appear below.
>  <compound>
C#CCN1CCc2nc3cc(C#Cc4ccccn4)ccc3c(=O)n2CC1

>  <test.readout>
pEC50

>  <measurement>
7.00 to 7.52

$$$$
>  <compound>
CC1Cc2nc3cc(C#Cc4ccccn4)ccc3c(=O)n2C1 (single isomer, unassigned) [3.12/3.13 faster moving enantiomer (fraction 1)]

>  <test.readout>
pEC50

>  <measurement>
7.00 to 7.52

$$$$
>  <compound>
O=c1c2ccc(C#Cc3ccccn3)cc2nc2n1CCC1(CC2)OCCO1

>  <test.readout>
pEC50

>  <measurement>
7.00 to 7.52

$$$$

IN: Fill blank: measured pEC50 of the compound CC1Cc2nc3cc(/C=C/c4cccc(F)c4)ccc3c(=O)n2C1 (stereo not drawn) is ____.
OUT: 6.52 to 7.00

IN: Could you share which pEC50 value was measured for Cc1cnc(C#Cc2ccc3c(=O)n4c(nc3c2)CCC(C)CC4)s1 (stereo not drawn) ?
OUT: 7.52 to 8.00

IN: Quick one: pEC50 for Cc1cccc(C#Cc2ccc3c(=O)n4c(nc3c2)CCC2(CC4)OCCO2)n1 ?
OUT: 6.52 to 7.00

IN: Fill in the blank: the reported pEC50 of O=c1c2ccc(C#Cc3ccccn3)cc2nc2n1CC1CCCN1CC2 (single isomer, unassigned) [Example 9.4a/9.4b slower moving enantiomer (fraction 2)] is ____.
OUT: 6.52 to 7.00

IN: I would be grateful if you could share the reported pEC50 for C=CCC1CCCn2c1nc1cc(C#Cc3cccc(F)c3)ccc1c2=O (stereo not drawn) .
OUT: 7.52 to 8.00

IN: Suppose we examine the compound Cc1noc(C)c1C#Cc1ccc2c(=O)n3c(nc2c1)CCC1(CC3)OCCO1 ; what pEC50 value has been reported?
OUT: 7.52 to 8.00

IN: Requested read-out: pEC50. Entry: CC(O)c1cnc2cc(C#Cc3cccc(F)c3)ccn2c1=O (stereo not drawn)
OUT: 6.52 to 7.00

IN: Look at this compound and give its reported pEC50. O=c1c2ccc(C#Cc3ccccn3)cc2nc2n1CCC(CO)C2 (stereo not drawn)
OUT: 7.00 to 7.52

IN: // query pEC50 value for entry O=c1c2ccc(C#Cc3ccc(F)cc3)cc2nc2n1CCOC2
OUT: 7.00 to 7.52

IN: Reported pEC50, compound O=c1c2ccc(C#Cc3cccnc3)cc2nc2n1CCC1(CC2)OCCO1 : ____
OUT: 6.00 to 6.52

IN: For the compound CC1CCn2c(nc3cc(C#Cc4cccc(F)c4)ccc3c2=O)C1 (stereo not drawn) , what pEC50 is on record?
OUT: > 8.00

IN: Name the reported pEC50 value associated with the compound CCCn1cnc2cc(C#Cc3ccc(F)cc3)ccc2c1=O
OUT: 6.52 to 7.00

IN: Dear colleague, I am looking for the recorded pEC50 of the following compound: COCC1Cc2nc3cc(C#Cc4ccccn4)ccc3c(=O)n2C1 (stereo not drawn)
OUT: 7.00 to 7.52

IN: Field request: pEC50 | item: Cc1cnc(NC(=O)c2ccc3c(=O)n4c(nc3c2)CCC(C)CC4)s1 (stereo not drawn)
OUT: 6.52 to 7.00

IN: Please give the measured pEC50 for this compound: O=c1c2ccc(C#Cc3ccccn3)cc2nc2n1CCC1CC21 (stereo not drawn)
OUT: 7.52 to 8.00
